- Tested on: UO-31 renal
- ASSAY_EXPLANATION: NCI tumour cell line growth inhibition, 48 h; in the data active means GI50 below about 0.43 µM; inactive means the rest
Log the outcome using a class from 1 (active), 0 (inactive)

Worked examples follow.
Cc1cc2c(cc1Cl)S/C(=C/C(=O)O)C(Nc1ccc3ncsc3c1)=NS2(=O)=O: 0
CC(C)(C)c1ccc(Oc2ccc(N)cn2)cc1: 0
CCCCCCCCCCCCCCCCCCn1cc[n+](C)c1: 0
O=C(N/N=C\c1ccc(N(CCCl)CCCl)cc1[N+](=O)[O-])c1cccnc1: 0
CC1=C(SCCC(=O)OC(C[Se]C2=C(C)C(=O)c3ccccc3C2=O)C(=O)NCCCCCC(=O)OCc2ccccc2)C(=O)c2ccccc2C1=O (centres undefined): 0
Cn1cc(-c2ccc3cc(-c4ccc(CC(=O)Nc5cc(C(C)(C)C)on5)cc4)cnc3c2)cn1: 1

Challenge: // outcome(item) with item = Nc1nc([Se])c2ncn(C3OC(CO)C(O)C3O)c2n1 (centres undefined)
Response given: 0

Challenge: Please share the test call associated with `COC(=O)[C@H](Cc1cnc[nH]1)NC(=O)[C@@H](NC(=O)Nc1cc(C(F)(F)F)cc(C(F)(F)F)c1)C(C)C` .
Response given: 0

Challenge: Called result for `CCc1ccc(CCC(=O)Nc2ncc(Cc3ccc(Cl)cc3)s2)o1`
Response given: 0

Measured values drawn from PubChem BioAssay (NCI) for this set.
